- Procedure Summary: Acute toxicity, LD50 (method of Miller and Tainter, mortality observed for 4 days)
- Cond: mouse, in vivo, po; mice, by mouth
Experimental Readout: LD50 at 96 h (mg/kg)
Please respond with the number in mg/kg and leave the unit unwritten.

CC(C)(Oc1ccc(Cl)cc1)C(=O)OCCNC(=O)c1cccnc1 = 3100

# evaluate next
Read the entry CC(C)(Oc1ccc(Cl)cc1)C(=O)OCCNC(=O)c1ccc[n+]([O-])c1 and write its reported LD50 at 96 h. 2400
